Where do the numbers come from? From paper PMC11077067.

Biological target: T1, Znf706 N-terminal peptide (Homo sapiens, UniProt Q9Y5V0 1-35)
T1 chain: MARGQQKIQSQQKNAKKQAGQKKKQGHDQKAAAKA
Assay: fluorescence polarization; 100 mM KCl; range over three G4s; FP/anisotropy: 20 mM NaPi, 100 mM KCl, 0.05% NaN3, pH 7.4, 25 C (LiCl variant: 20 mM Tris-HCl, 100 mM LiCl, pH 7.4; NaCl variant: 20 mM NaPi, 100 mM NaCl, pH 7.4); NMR: 20 mM NaPi, 100 mM KCl, 7.5% D2O, pH 7.4, 4-50 C
Details: label: 5' 6-FAM; parallel G4
pKd: −log10 of the molar value.
result.type: pKd

> print(dat)
                                     binder  experimental.result
1  AGGAGGGGGGCGGGA (structured_DNA) [Bcl2SH, 6-FAM]                ~4.77
2  TAGGGAGGGTAGGGAGGGT (structured_DNA) [cMyc (Pu19_A2A11), 6-FAM]                ~4.77
